- Test system: HOP-62 NSCLC
- procedure.text: NCI tumour cell line growth inhibition, 48 h
recorded.metric: GI50

# compound, recorded.metric, obs.value
measured = [
    ("CS(=O)(=O)CCNCc1ccc(-c2ccc3ncnc(Nc4ccc(OCc5ccccc5)c(C(F)(F)F)c4)c3c2)o1", "GI50", "6.16 µM"),
    ("NC1=NC(=O)N2CC12 (stereo not given)", "GI50", "570 µM"),
    ("O=S(=O)(NCCNc1cc(-c2cn(-c3ccccc3)nc2-c2cccc(O)c2)ccn1)c1ccc(C(F)(F)F)cc1", "GI50", "2.56 µM"),
    ("COc1ccc(C(=O)/C=C/c2cc3ccccc3[nH]c2=O)cc1", "GI50", "20.5 µM"),
    ("O=c1oc2ccc(Cl)cc2c(=O)n1-c1ccc(Cl)cc1F", "GI50", "0.622 µM"),
]

====

- Test system: NCI-H226 lung
- procedure.text: NCI tumour cell line growth inhibition, 48 h; in the data active = GI50 below about 0.43 µM; inactive = the rest
Labels: active, inactive

# compound, label.value
measured = [
    ("CCN(Cc1ccc(F)cc1)c1ccc(CO)c(Cl)c1", "active"),
    ("COc1ccc(-c2cc(-c3ccc(Nc4nc(Nc5ccc(Cl)cc5)nc(Nc5ccc(Cl)cc5)n4)cc3)no2)cc1", "inactive"),
    ("NC1=NC(=O)N2CC12 (centres undefined)", "inactive"),
    ("O=S(=O)(NCCNc1cc(-c2cn(-c3ccccc3)nc2-c2cccc(O)c2)ccn1)c1ccc(C(F)(F)F)cc1", "inactive"),
    ("Cc1cc(NC(=O)c2ccc(NS(=O)(=O)CCO)cc2N2CCC3(CC2)CC3)nc(N2CCC(F)(F)CC2)n1", "inactive"),
    ("COc1cc2c(c(OC)c1OC)-c1ccc([O-])c(=O)cc1[C@@H](NC(C)=O)CC2.COc1cc2c(c(OC)c1OC)-c1ccc([O-])c(=O)cc1[C@@H](NC(C)=O)CC2.[Cu+2]", "inactive"),
    ("O=c1ncc(-c2ccc(C(F)(F)F)cc2)c(NC2CCCCCC2)[nH]1", "inactive"),
    ("Nc1nc(N)c2nc(CNc3ccc(C(=O)CC(CCC(=O)O)C(=O)O)cc3)cnc2n1 (centres undefined)", "inactive"),
    ("COc1ccc(-c2coc3ncnc(N)c23)cc1", "inactive"),
    ("CS(=O)(=O)CCNCc1ccc(-c2ccc3ncnc(Nc4ccc(OCc5ccccc5)c(C(F)(F)F)c4)c3c2)o1", "inactive"),
    ("O=S(=O)(/C=C/C=C/S(=O)(=O)c1ccccc1)c1ccccc1", "inactive"),
    ("CCCCCCN(CCCCCC)C(=N)c1ccnc2ccccc12", "inactive"),
    ("CCC1CCc2nc3sc(C(=O)Nc4ccccc4F)c(N)c3cc2C1 (centres undefined)", "inactive"),
    ("C[C@H]1CCC/C=C/[C@@H]2C[C@H](O)C[C@H]2[C@H](O)[C@H](S(=O)c2ccc(O)cc2)CC(=O)O1 (some centres undefined)", "active"),
]

====

- System: 786-0 renal
- procedure.text: NCI tumour cell line growth inhibition, 48 h; in the data active means GI50 below about 0.43 µM; inactive means the rest
Labels: active, inactive

# query.smiles, label.value
records = [
    ("COc1cc(N2CCC(N3CCN(C)CC3)CC2)ccc1Nc1ncc(Cl)c(Nc2ccccc2P(C)(C)=O)n1", "inactive"),
    ("COc1ccc(C(=S)c2cc(OC)c(OC)c(OC)c2)cc1OC(=O)CCl", "active"),
    ("O=S(=O)(NCCNc1cc(-c2cn(-c3ccccc3)nc2-c2cccc(O)c2)ccn1)c1ccc(C(F)(F)F)cc1", "inactive"),
    ("CCCCCCN(CCCCCC)C(=N)c1ccnc2ccccc12", "inactive"),
    ("O=C1C(=O)c2cc([N+](=O)[O-])ccc2-c2ccccc21", "inactive"),
    ("COc1cccc(-c2nn(-c3ccccc3)cc2-c2ccnc(NCCNS(=O)(=O)c3ccc(C(F)(F)F)cc3)c2)c1", "inactive"),
    ("Cc1ccc(-c2csc(N(C(=O)N3CCN(c4cc5c(cc4F)c(=O)c(C(=O)O)cn5C4CC4)CC3)c3ccccc3)n2)cc1", "active"),
    ("O=c1oc2ccc(Cl)cc2c(=O)n1-c1ccc(Cl)cc1F", "inactive"),
    ("Nc1ccccc1NC(=O)c1ccc(CSc2nc(N3CCOCC3)c3cccn3n2)cc1", "inactive"),
]
